# assay_system: Bombesin receptor subtype-3 (Rattus norvegicus) (UniProt Q8K418)
# Sequence (whole entry): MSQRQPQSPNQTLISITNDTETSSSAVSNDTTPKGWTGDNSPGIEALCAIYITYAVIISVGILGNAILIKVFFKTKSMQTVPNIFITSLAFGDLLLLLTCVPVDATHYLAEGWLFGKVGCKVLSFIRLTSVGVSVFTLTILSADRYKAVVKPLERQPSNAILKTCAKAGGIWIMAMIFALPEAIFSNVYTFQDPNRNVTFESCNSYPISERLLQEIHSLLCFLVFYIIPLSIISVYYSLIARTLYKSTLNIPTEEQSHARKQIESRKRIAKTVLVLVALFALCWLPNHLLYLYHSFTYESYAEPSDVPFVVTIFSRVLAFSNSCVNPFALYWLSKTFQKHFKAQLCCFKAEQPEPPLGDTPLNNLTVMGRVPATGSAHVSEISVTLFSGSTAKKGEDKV
# assay_name: Agonist activity at rat BRS3 expressed in HEK293AEQ cells after 10 mins by aequorin bioluminescence assay relative to dY-peptide
# Format: functional, cell-based
# Set-up: concentration or dose not given beside the values
Where Activity equals or exceeds 60%, the correct label is Met; where it does not, the label is Not met.

query_smiles | qualitative_label
Nc1n[nH]c2nc(N3CCNCC3)c3c(c12)CCN(Cc1ccccc1)C3 | Not met
Nc1n[nH]c2nc(N3CCCCC3)c3c(c12)CCN(CCc1ccccc1)C3 | Not met
O=C(Nc1n[nH]c2nc(N3CCCCC3)c3c(c12)CCN(Cc1ccccc1)C3)C1CCCC1 | Met
Nc1n[nH]c2nc(N3CCCCC3)c3c(c12)CCN(Cc1ccccn1)C3 | Met
CC(C)(C)CC(=O)Nc1n[nH]c2nc(N3CCCCC3)c3c(c12)CCN(Cc1ccccc1)C3 | Met
COc1ccc(CN2CCc3c(c(N4CCCCC4)nc4[nH]nc(N)c34)C2)cc1 | Not met
Nc1n[nH]c2nc(N3CCCCC3)c3c(c12)CCN(Cc1ccccc1Cl)C3 | Met
CCNc1n[nH]c2nc(N3CCCCC3)c3c(c12)CCN(Cc1ccccc1)C3 | Met
CN1CCN(c2nc3[nH]nc(N)c3c3c2CN(Cc2ccccc2)CC3)CC1 | Not met

---

# assay_name: Drug level in rat brain at 1 mg/kg, iv after 1 hr
# Type: ADME, organism-based
# Design: dose 1 mg/kg, route intravenous
# stated_conditions: read-out: Drug uptake

query_smiles | unit_abbrev | concentration at 1 h
Nc1n[nH]c2nc(N3CCCCC3)c3c(c12)CCN(Cc1ccccc1)C3 | nM | 390

---

# assay_system: UniProtKB Q8K418
# assay_name: Agonist activity at rat BRS3 expressed in HEK293AEQ cells after 10 mins by aequorin bioluminescence assay
pEC50: −log10 of the molar value.
Entries and their pEC50 values follow.
recorded_metric: pEC50

query_smiles | assay_system | recorded_metric | assay_value
Nc1n[nH]c2nc(NC3CCCCC3)c3c(c12)CCN(Cc1ccccc1)C3 | UniProtKB Q8K418 | pEC50 | 5.00
COc1ccc(CN2CCc3c(c(N4CCCCC4)nc4[nH]nc(N)c34)C2)cc1 | UniProtKB Q8K418 | pEC50 | 5.00
O=C(Nc1n[nH]c2nc(N3CCCCC3)c3c(c12)CCN(Cc1ccccc1)C3)C1CCCC1 | UniProtKB Q8K418 | pEC50 | 6.38
CC(C)Nc1nc2[nH]nc(N)c2c2c1CN(Cc1ccccc1)CC2 | UniProtKB Q8K418 | pEC50 | 5.12
CC1CCN(c2nc3[nH]nc(N)c3c3c2CN(Cc2ccccc2)CC3)CC1 | UniProtKB Q8K418 | pEC50 | 6.07
Nc1n[nH]c2nc(N3CCCCC3)c3c(c12)CCN(Cc1ccc2c(c1)OCO2)C3 | UniProtKB Q8K418 | pEC50 | 6.40
CC(C)C(=O)Nc1n[nH]c2nc(N3CCCCC3)c3c(c12)CCN(Cc1ccccc1)C3 | UniProtKB Q8K418 | pEC50 | 7.00
CC(=O)Nc1n[nH]c2nc(N3CCCCC3)c3c(c12)CCN(Cc1ccccc1)C3 | UniProtKB Q8K418 | pEC50 | 6.89
Cn1nc(N)c2c3c(c(N4CCCCC4)nc21)CN(Cc1ccccc1)CC3 | UniProtKB Q8K418 | pEC50 | 5.22
Nc1n[nH]c2nc(N3CCCCC3)c3c(c12)CCN(Cc1cccc(C(F)(F)F)c1)C3 | UniProtKB Q8K418 | pEC50 | 5.00
CCC(C)(C)C(=O)Nc1n[nH]c2nc(N3CCCCC3)c3c(c12)CCN(Cc1ccccc1)C3 | UniProtKB Q8K418 | pEC50 | 6.67
Nc1n[nH]c2nc(N3CCCCC3)c3c(c12)CCN(Cc1ccccc1)C3 | UniProtKB Q8K418 | pEC50 | 6.42
Nc1n[nH]c2nc(N3CCCCC3)c3c(c12)CCN(CC1CCCCC1)C3 | UniProtKB Q8K418 | pEC50 | 5.00
CN(C)c1nc2[nH]nc(N)c2c2c1CN(Cc1ccccc1)CC2 | UniProtKB Q8K418 | pEC50 | 5.05
CCC(=O)Nc1n[nH]c2nc(N3CCCCC3)c3c(c12)CCN(Cc1ccccc1)C3 | UniProtKB Q8K418 | pEC50 | 6.91

---

# assay_system: UniProt:P32247
# assay_name: Agonist activity at human BRS3 expressed in HEK293AEQ cells after 10 mins by aequorin bioluminescence assay relative to dY-peptide
# Type: functional, cell-based

query_smiles | assay_system | Activity (%)
Nc1n[nH]c2nc(NC3CCCCC3)c3c(c12)CCN(Cc1ccccc1)C3 | UniProt:P32247 | 1
Nc1n[nH]c2nc(N3CCC(F)CC3)c3c(c12)CCN(Cc1ccccc1)C3 | UniProt:P32247 | 10
Nc1n[nH]c2nc(N3CCCCC3)c3c(c12)CCN(CCc1ccccc1)C3 | UniProt:P32247 | 3.3
CCC(=O)Nc1n[nH]c2nc(N3CCCCC3)c3c(c12)CCN(Cc1ccccc1)C3 | UniProt:P32247 | 19
Nc1n[nH]c2nc(N3CCCCC3)c3c(c12)CCN(Cc1ccccc1Cl)C3 | UniProt:P32247 | 67
Nc1n[nH]c2nc(N3CCCCC3)c3c(c12)CCNC3 | UniProt:P32247 | 0.3
CC(C)Nc1nc2[nH]nc(N)c2c2c1CN(Cc1ccccc1)CC2 | UniProt:P32247 | 1.8
CN(C)c1nc2[nH]nc(N)c2c2c1CN(Cc1ccccc1)CC2 | UniProt:P32247 | 0.9
CC(C)(C)CC(=O)Nc1n[nH]c2nc(N3CCCCC3)c3c(c12)CCN(Cc1ccccc1)C3 | UniProt:P32247 | 52
COc1ccc(CN2CCc3c(c(N4CCCCC4)nc4[nH]nc(N)c34)C2)cc1 | UniProt:P32247 | 0.55

---

Entries and their pEC50 values follow.
# assay_system: Bombesin receptor subtype-3 (Homo sapiens, UniProt P32247)
# Sequence (P32247 whole entry): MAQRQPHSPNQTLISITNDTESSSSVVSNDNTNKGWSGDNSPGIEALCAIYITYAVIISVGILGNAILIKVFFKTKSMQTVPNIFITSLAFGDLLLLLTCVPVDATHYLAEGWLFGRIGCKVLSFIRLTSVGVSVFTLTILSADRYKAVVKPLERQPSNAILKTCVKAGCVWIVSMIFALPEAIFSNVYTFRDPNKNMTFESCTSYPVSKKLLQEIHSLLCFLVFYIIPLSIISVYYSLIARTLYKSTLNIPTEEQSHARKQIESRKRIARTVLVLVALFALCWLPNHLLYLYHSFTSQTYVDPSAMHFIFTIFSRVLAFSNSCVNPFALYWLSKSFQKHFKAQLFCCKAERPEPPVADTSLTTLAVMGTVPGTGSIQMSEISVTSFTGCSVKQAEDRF
# assay_name: Agonist activity at human BRS3 expressed in HEK293AEQ cells after 10 mins by aequorin bioluminescence assay
pEC50: −log10 of the molar value.
recorded_metric: pEC50

query_smiles | rel | assay_value
Nc1n[nH]c2nc(Nc3ccccc3)c3c(c12)CCN(Cc1ccccc1)C3 | = | 5.00
CC(=O)Nc1n[nH]c2nc(N3CCCCC3)c3c(c12)CCN(Cc1ccccc1)C3 | = | 5.50
Nc1n[nH]c2nc(N3CCCCC3)c3c(c12)CCN(Cc1ccc2c(c1)OCO2)C3 | = | 5.00
CN1CCN(c2nc3[nH]nc(N)c3c3c2CN(Cc2ccccc2)CC3)CC1 | = | 5.00
O=C(Nc1n[nH]c2nc(N3CCCCC3)c3c(c12)CCN(Cc1ccccc1)C3)C1CCCC1 | = | 6.15
CCC(=O)Nc1n[nH]c2nc(N3CCCCC3)c3c(c12)CCN(Cc1ccccc1)C3 | = | 5.46
Nc1n[nH]c2nc(N3CCCCC3)c3c(c12)CCN(Cc1ccccn1)C3 | = | 5.17
Nc1n[nH]c2nc(N3CCCC3)c3c(c12)CCN(Cc1ccccc1)C3 | = | 5.00
Nc1n[nH]c2nc(N3CCCCC3)c3c(c12)CCN(CC1CCCCC1)C3 | = | 5.00
Nc1n[nH]c2nc(N3CCNCC3)c3c(c12)CCN(Cc1ccccc1)C3 | = | 5.00
Nc1n[nH]c2nc(N3CCC(F)CC3)c3c(c12)CCN(Cc1ccccc1)C3 | = | 5.00
CC(C)C(=O)Nc1n[nH]c2nc(N3CCCCC3)c3c(c12)CCN(Cc1ccccc1)C3 | = | 5.32
CC(C)(C)CC(=O)Nc1n[nH]c2nc(N3CCCCC3)c3c(c12)CCN(Cc1ccccc1)C3 | = | 5.91
CCC(C)(C)C(=O)Nc1n[nH]c2nc(N3CCCCC3)c3c(c12)CCN(Cc1ccccc1)C3 | = | 6.27
Nc1n[nH]c2nc(N3CCCCC3)c3c(c12)CCNC3 | < | 5.00
Nc1n[nH]c2nc(N3CCCCC3)c3c(c12)CCN(Cc1ccccc1Cl)C3 | = | 5.25
CN(C)c1nc2[nH]nc(N)c2c2c1CN(Cc1ccccc1)CC2 | = | 5.00
CC(=O)n1nc(N)c2c3c(c(N4CCCCC4)nc21)CN(Cc1ccccc1)CC3 | = | 5.00
CCNc1n[nH]c2nc(N3CCCCC3)c3c(c12)CCN(Cc1ccccc1)C3 | = | 5.00
Nc1n[nH]c2nc(N3CCCCCCC3)c3c(c12)CCN(Cc1ccccc1)C3 | = | 5.00
Nc1n[nH]c2nc(N3CCCCC3)c3c(c12)CCN(C(=O)c1ccc(F)cc1)C3 | < | 5.00
Nc1n[nH]c2nc(NC3CCCCC3)c3c(c12)CCN(Cc1ccccc1)C3 | = | 5.00
Cn1nc(N)c2c3c(c(N4CCCCC4)nc21)CN(Cc1ccccc1)CC3 | = | 5.00
Nc1n[nH]c2nc(N3CCCCC3)c3c(c12)CCN(Cc1ccccc1)C3 | = | 5.34
Nc1n[nH]c2nc(N3CCCCC3)c3c(c12)CCN(Cc1ccc(F)cc1)C3 | = | 5.00
Nc1n[nH]c2nc(N3CCCCCC3)c3c(c12)CCN(Cc1ccccc1)C3 | = | 5.00
CC(C)(C)CN1CCc2c(c(N3CCCCC3)nc3[nH]nc(N)c23)C1 | = | 5.00
CC1CCN(c2nc3[nH]nc(N)c3c3c2CN(Cc2ccccc2)CC3)CC1 | = | 5.00
Nc1n[nH]c2nc(N3CCOCC3)c3c(c12)CCN(Cc1ccccc1)C3 | = | 5.00
Nc1n[nH]c2nc(N3CCCCC3)c3c(c12)CCN(CCc1ccccc1)C3 | = | 5.00
CC(C)Nc1nc2[nH]nc(N)c2c2c1CN(Cc1ccccc1)CC2 | = | 5.00
Nc1n[nH]c2nc(N3CCCCC3)c3c(c12)CCN(Cc1cccc(C(F)(F)F)c1)C3 | = | 5.00
CC(C)(C)CNc1n[nH]c2nc(N3CCCCC3)c3c(c12)CCN(Cc1ccccc1)C3 | = | 5.38
CC(C)(C)C(=O)Nc1n[nH]c2nc(N3CCCCC3)c3c(c12)CCN(Cc1ccccc1)C3 | = | 5.81
COc1ccc(CN2CCc3c(c(N4CCCCC4)nc4[nH]nc(N)c34)C2)cc1 | = | 5.00
CC(C)CN1CCc2c(c(N3CCCCC3)nc3[nH]nc(N)c23)C1 | = | 5.00
